System: Rattus norvegicus
measurement-protocol: Blood clearance at steady state in rat at 2 mg/kg/h, iv
Format: ADME, organism-based
Parameters: route intravenous
measurement-context: in vivo

{"structure-notation": "CC[C@@H](NC(=O)c1ccc2c(c1)ncn2Cc1ccccn1)c1ccccc1", "target": "Rattus norvegicus", "units": "mL/min/kg", "clearance": 78}
{"structure-notation": "CC[C@@H](NC(=O)c1ccc2c(c1)ncn2Cc1ncc(F)cc1F)c1ccccc1", "target": "Rattus norvegicus", "units": "mL/min/kg", "clearance": 30}
{"structure-notation": "CC[C@@H](NC(=O)c1ccc2c(c1)ncn2Cc1ccc(Cl)c(Cl)c1)c1ccccc1", "target": "Rattus norvegicus", "units": "mL/min/kg", "clearance": 84}
{"structure-notation": "CC[C@@H](NC(=O)c1ccc2c(c1)ncn2Cc1ccc(F)cc1F)c1ccccc1", "target": "Rattus norvegicus", "units": "mL/min/kg", "clearance": 107}

====

measurement-protocol: Fraction unbound in rat blood
Format: ADME, tissue-based
parameter-measured: fraction unbound

{"structure-notation": "CC[C@@H](NC(=O)c1ccc2c(c1)ncn2Cc1ncc(F)cc1F)c1ccccc1", "endpoint-result": 0.175}

====

Tested on: Liver microsomes
measurement-protocol: Intrinsic clearance in rat liver microsome
Assay type: ADME
Values of CL greater than or equal to 3 mL/min/g map to 1; values below map to -1.

{"molecule": "CC[C@@H](NC(=O)c1ccc2c(c1)ncn2Cc1ccc(F)cc1F)c1ccccc1", "category": 1}
{"molecule": "Cc1nc2cc(C(=O)N[C@H](C)c3ccccc3)ccc2n1Cc1ccc(Cl)c(Cl)c1", "category": -1}
{"molecule": "CCC(NC(=O)c1ccc2c(c1)nc(C)n2Cc1ccc(Cl)c(Cl)c1)c1ccccc1 (stereo not given)", "category": -1}
{"molecule": "CC[C@@H](NC(=O)c1ccc2c(c1)ncn2Cc1ccc(Cl)c(Cl)c1)c1ccccc1", "category": 1}
{"molecule": "CC[C@@H](NC(=O)c1ccc2c(c1)ncn2Cc1ncc(F)cc1F)c1ccccc1", "category": -1}

====

Tested on: Liver microsomes
measurement-protocol: Intrinsic clearance in human liver microsome
Type: ADME
Recorded measurements of CL, one per entry

{"compound": "Cc1nc2cc(C(=O)N[C@H](C)c3ccccc3)ccc2n1Cc1ccc(Cl)c(Cl)c1", "units": "mL/min/g", "CL": 0.5}
{"compound": "CC[C@@H](NC(=O)c1ccc2c(c1)ncn2Cc1ccc(F)cc1F)c1ccccc1", "units": "mL/min/g", "CL": 0.5}
{"compound": "CC[C@@H](NC(=O)c1ccc2c(c1)ncn2Cc1ccc(Cl)c(Cl)c1)c1ccccc1", "units": "mL/min/g", "CL": 0.6}
{"compound": "CC[C@@H](NC(=O)c1ccc2c(c1)ncn2Cc1ncc(F)cc1F)c1ccccc1", "units": "mL/min/g", "CL": 0.5}
{"compound": "CCC(NC(=O)c1ccc2c(c1)nc(C)n2Cc1ccc(Cl)c(Cl)c1)c1ccccc1 (stereo not given)", "units": "mL/min/g", "CL": 0.5}

====

target: Peroxisome proliferator-activated receptor gamma (Homo sapiens) (UniProt P37231)
Sequence (whole entry): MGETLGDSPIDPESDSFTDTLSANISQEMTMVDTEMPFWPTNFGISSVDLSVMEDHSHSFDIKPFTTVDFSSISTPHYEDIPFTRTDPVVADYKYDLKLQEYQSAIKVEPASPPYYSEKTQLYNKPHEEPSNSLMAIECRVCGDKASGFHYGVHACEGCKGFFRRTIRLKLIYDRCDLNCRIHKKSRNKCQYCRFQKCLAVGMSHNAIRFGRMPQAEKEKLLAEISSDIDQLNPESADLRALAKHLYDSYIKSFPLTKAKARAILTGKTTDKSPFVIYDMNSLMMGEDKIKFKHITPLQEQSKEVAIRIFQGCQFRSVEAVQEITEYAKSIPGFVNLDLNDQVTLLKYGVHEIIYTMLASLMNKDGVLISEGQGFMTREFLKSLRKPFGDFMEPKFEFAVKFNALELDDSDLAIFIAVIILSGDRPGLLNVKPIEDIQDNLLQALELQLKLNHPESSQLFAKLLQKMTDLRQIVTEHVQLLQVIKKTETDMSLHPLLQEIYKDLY
measurement-protocol: Activity at human PPARgamma by luciferase reporter gene assay
Design: concentration or dose not given beside the values
Activity values, listed per item
parameter-measured: Activity (%)

{"structure-notation": "CC[C@H](NC(=O)c1ccc2c(c1)nc(C)n2Cc1ccc(Cl)c(Cl)c1)c1ccccc1", "units": "%", "endpoint-result": 21}
{"structure-notation": "CC[C@@H](NC(=O)c1ccc2c(c1)ncn2Cc1ncc(Cl)cc1Cl)c1ccccc1", "units": "%", "endpoint-result": 76}
{"structure-notation": "CC[C@@H](NC(=O)c1ccc2c(c1)ncn2Cc1ccccn1)c1ccccc1", "units": "%", "endpoint-result": 59}
{"structure-notation": "CC[C@@H](NC(=O)c1ccc2c(c1)nc(C(F)(F)F)n2Cc1ccc(Cl)c(Cl)c1)c1ccccc1", "units": "%", "endpoint-result": 60}
{"structure-notation": "CC[C@@H](NC(=O)c1ccc2c(c1)ncn2Cc1ccc(F)c(Cl)c1)c1ccccc1", "units": "%", "endpoint-result": 85}
